Reference source for all entries: the supplement of paper PMC10567573

B1: ZNF263 (parent)
chain: FAHSSNLLRHQRIHTGERPYKCPE

variants of: B1; test: protein stability index of a GFP-peptide fusion (GPS, HEK-293T) (PSI 1-6); higher = more stable; settings: c terminus: a fixed tail appended;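 further: lentivirally expressed fusions sorted by FACS into six bins by GFP to DsRed ratio, PSI derived from sequencing read proportions per bin multiplied by bin number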
As shown below, each of these variants has a reported protein stability index value.
Attribute Measured: protein stability index

> print(dat)
    mutation.id       attribute.measured  numeric.result
 1         G16V  protein stability index             2.1
 2          S4V  protein stability index            2.24
 3         H10T  protein stability index             2.2
 4         H10K  protein stability index            1.73
 5         R12I  protein stability index            2.33
 6         G16N  protein stability index            2.43
 7         Y20M  protein stability index            2.72
 8         K21Q  protein stability index             2.3
 9          F1K  protein stability index            3.54
10          H3Q  protein stability index            2.03
11         C22N  protein stability index            2.95
12         P19C  protein stability index            2.48
13         E24H  protein stability index            2.16
14         T15A  protein stability index            1.97
15         E17N  protein stability index             1.8
16          S4G  protein stability index            2.45
17         H14E  protein stability index            2.73
18         R18P  protein stability index            2.45
19         P23Q  protein stability index               3
20          R9D  protein stability index            2.62
21          R9E  protein stability index            3.23
22         Y20I  protein stability index            2.63
23          S5H  protein stability index            1.81
24          H3W  protein stability index            1.25
25         E24F  protein stability index            1.59
26          S4C  protein stability index            2.11
27         T15H  protein stability index            2.12
28          F1C  protein stability index            2.36
29          F1M  protein stability index             3.9
30         G16T  protein stability index            2.56
31          F1N  protein stability index             3.9
32         I13L  protein stability index            2.07
33         E24S  protein stability index            1.84
34         R18D  protein stability index            3.28
35          F1S  protein stability index            3.34
36         H14K  protein stability index            2.08
37         Y20P  protein stability index            3.02
38         C22V  protein stability index            2.13
39          N6Y  protein stability index            1.63
40         K21N  protein stability index            3.13
41         H10L  protein stability index            1.94
42         G16Q  protein stability index            2.01
43          R9I  protein stability index            2.21
44         Q11G  protein stability index            2.18
45         E17M  protein stability index            1.98
46          S4M  protein stability index            1.86
47         E17V  protein stability index            2.44
48          R9H  protein stability index            2.85
49         H10G  protein stability index            2.44
50         E17Y  protein stability index            1.47
51         P23N  protein stability index            2.56
52         R18F  protein stability index            2.16
53         R18L  protein stability index            2.39
54         P23S  protein stability index            2.41
55          S4T  protein stability index            2.13
56          N6P  protein stability index            1.98
57         P19D  protein stability index            3.71
58          F1A  protein stability index             3.8
59         E17K  protein stability index            1.44
60          L8E  protein stability index             3.3
61         H14R  protein stability index            2.18
62          L8F  protein stability index             1.8
63         I13Y  protein stability index            2.43
64         E24W  protein stability index            2.72
65         T15D  protein stability index            2.56
66          H3K  protein stability index            1.86
67          L7V  protein stability index            2.68
68          S4H  protein stability index            1.91
69          L7P  protein stability index            2.02
70         T15F  protein stability index            2.58
71         R12D  protein stability index             3.3
72         Q11H  protein stability index             2.5
73         K21D  protein stability index            2.62
74          R9F  protein stability index            2.06
75          H3G  protein stability index            2.12
76          L7M  protein stability index            2.39
77         Q11N  protein stability index            3.13
78         E17D  protein stability index            1.91
79         H14S  protein stability index            2.46
80          L8A  protein stability index            2.37
81          F1H  protein stability index            4.22
82          A2L  protein stability index            2.57
83          S5A  protein stability index            2.04
84          A2M  protein stability index            2.83
85          N6F  protein stability index            1.73
86         C22T  protein stability index            2.03
87         H10R  protein stability index             1.8
88         Y20N  protein stability index            3.29
89          S5W  protein stability index            2.24
90         E24D  protein stability index            2.44
91         R12P  protein stability index            2.38
